Test system: antifilaggrin antibodies in human sera
Experiment: Line Immuno Assay (LIA): reactivity of streptavidin-complexed synthetic peptides with human sera
Type: binding
Conditions: serum group Healthy, number of sera 16
Ends that are not written are not given here.
Provide the reported Immunoreactivity of human sera with synthetic peptide: number of reactive sera of each item.
Form rule: numeric answer, no unit written next to it.

Query block: Give the measured Immunoreactivity of human sera with synthetic peptide: number of reactive sera of GGQGSRHQQAR [IGP1249] .
Result block: 1

Query block: Another sequence to check: HSGIGHGQASSAVRDSGHRGYS [IGP1156] (not fully specified; also: Arg may be citrulline in one of each IGP pair, not given here)
Result block: 2

Query block: Another sequence to check: HSASQDGQDTIRGHPGSS [IGP1155] (also: Arg may be citrulline in one of each IGP pair, not given here)
Result block: 1

Query block: Another sequence to check: HSTSQEGQDTIHGHRGS [IGP1158] (also: Arg may be citrulline in one of each IGP pair, not given here)
Result block: 1

###

Test system: antifilaggrin antibodies in human sera
Assay: Line Immuno Assay (LIA): reactivity of streptavidin-complexed synthetic peptides with human sera
Type: binding
Conditions: serum group APF neg., number of sera 80
Ends that are not written are not given here.
Provide the reported Immunoreactivity of human sera with synthetic peptide: number of reactive sera of each item.
Form rule: numeric answer, no unit written next to it.

Query block: Give the measured Immunoreactivity of human sera with synthetic peptide: number of reactive sera of HSASQDGQDTIRGHPGSS [IGP1155] (also: Arg may be citrulline in one of each IGP pair, not given here) .
Result block: 4

Query block: Another sequence to check: HSGIGHGQASSAVRDSGHRGYS [IGP1156] (not fully specified; also: Arg may be citrulline in one of each IGP pair, not given here)
Result block: 4

###

System: antifilaggrin antibodies in human sera
Test: Line Immuno Assay (LIA): reactivity of streptavidin-complexed synthetic peptides with human sera
Assay type: binding
Details: serum group APF neg., number of sera 80
Ends that are not written are not given here.
Measure: Immunoreactivity of human sera with synthetic peptide: number of reactive sera

Query block: Give the measured Immunoreactivity of human sera with synthetic peptide: number of reactive sera of HSTSQEGQDTIHGHRGS [IGP1158] (also: Arg may be citrulline in one of each IGP pair, not given here) .
Result block: 5/79

Query block: Another sequence to check: GGQGSRHQQAR [IGP1249]
Result block: 1/79

Query block: Another sequence to check: DSGHRGYSGSQASDNEGH [IGP1157] (also: Arg may be citrulline in one of each IGP pair, not given here)
Result block: 2/61
